# System: Fibroblast
# Test Name: Multiplex assay against human fibroblast
# Type: toxicity, cell-based
# Condition Summary: 24 h, 1 µM, compound concentration 1 uM, replicate 1
Metric: Population Apoptotic (%)

>>> print(df.to_string())
                                   compound                    metric  reported
0  CC(/C=C1\SC(=S)N(CCCC(=O)Nc2ccc(C(=O)O)c(O)c2)C1=O)=C\c1ccccc1  Population Apoptotic (%)        54
1  CCCCCC(O)/C=C/[C@H]1C(=O)CC(O)C1C/C=C\CCCC(=O)O (stereo partly drawn)  Population Apoptotic (%)        35
2  Cc1cnc(-c2cc(N3CCN(C(=O)CCS(C)(=O)=O)CC3)ncc2Cl)c(C)c1  Population Apoptotic (%)        54
